Here, each record is paired with measured IC50 data.
- Tgt: truncated human beta-secretase (residues 1-458, His6-tagged at the C-terminus) (Homo sapiens)
- Construct: truncated human beta-secretase (residues 1-458, His6-tagged at the C-terminus); His6 (C); made in house; host or cells: insect cells D. melanogaster S2 (baculovirus expression system (so in the source))
- Sequence (P56817 22-458): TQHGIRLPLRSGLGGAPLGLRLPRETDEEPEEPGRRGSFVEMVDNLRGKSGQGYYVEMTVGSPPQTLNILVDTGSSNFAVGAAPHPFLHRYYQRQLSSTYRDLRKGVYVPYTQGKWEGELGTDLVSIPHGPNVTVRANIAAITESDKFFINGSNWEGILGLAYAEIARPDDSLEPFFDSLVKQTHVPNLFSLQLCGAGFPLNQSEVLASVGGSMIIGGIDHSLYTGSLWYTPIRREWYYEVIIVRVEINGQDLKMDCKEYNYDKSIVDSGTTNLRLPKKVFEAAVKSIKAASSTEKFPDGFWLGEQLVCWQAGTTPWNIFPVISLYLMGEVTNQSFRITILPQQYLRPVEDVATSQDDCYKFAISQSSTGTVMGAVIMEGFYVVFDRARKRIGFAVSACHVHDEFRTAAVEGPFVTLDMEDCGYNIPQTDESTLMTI
- Measurement Description: BACE fluorescence quench assay
- Type: biochemical
- Test Settings: in vitro enzyme activity, BACE fluorescence assay, pH 4.5; read-out: IC50
- Method: The assay was performed at room temperature in 96-well white opaque Optiplates aque Optiplates (PerkinElmer, Waltham, Mass.) in a total volume of 200 μl of the incubation mixture containing 50 mM sodium acetate buffer, pH 4.5, 0.4 μM FRET substrate, 2.4 nM enzyme, 5% DMSO, and 0.05% Brij-35. […] The reaction was started by addition of enzyme, and the progress of the reaction was followed by measuring fluorescence with an excitation wavelength of 480 nm and an emission wavelength of 520 nm. […]

**Query** // IC50 lookup, key: CN1C(=O)[C@@]2(C[C@@]3(CCCOC3)Oc3ccc(-c4ccc(F)c(Cl)c4)cc32)N=C1N
**Result** 100 to 500 nM

**Query** Request: CN1O[C@]2(C[C@H]([C@H]3CCCOC3)Oc3ccc(-c4cc(F)cc(F)c4)cc32)N=C1N (racemic)
**Result** 100 to 500 nM

**Query** Request: CC(C)=C[C@H](CCO)[C@@H]1C[C@@]2(N=C(N)N(C)O2)c2cc(-c3cc(F)cc(F)c3)ccc2O1
**Result** 1000 to 5000 nM

**Query** Request: CN1OC2(C[C@H]([C@@H]3CCOC(C)(C)C3)Oc3ccc(-c4cccc(C#N)c4F)cc32)N=C1N (stereo partly shown)
**Result** 100 to 500 nM

**Query** Request: CC(C)=CC(CCO)C1CC2(N=C(N)N(C)O2)c2cc(-c3cc(F)ccc3F)ccc2O1 (stereo not shown)
**Result** 5000 to 10000 nM

**Query** Request: CN1OC2(C[C@]3(CCCC4CCCCC43)Oc3ccc(-c4cccc(C#N)c4)cc32)N=C1N (stereo partly shown)
**Result** 1000 to 5000 nM

**Query** Request: Cc1ccc(F)cc1-c1ccc2c(c1)[C@]1(C[C@]3(CCCOC3)O2)N=C(N)N(C)C1=O
**Result** 100 to 500 nM
